# SUBJECT OF TEST: Thermus thermophilus TtPFK optical probe 254/255-TtPFK-cpYFP variant, TtPFK V54K/I253G/Q254L/R255L/G256F, cpYFP Y1P (Thermus thermophilus, UniProt P21777, form not given/G256F/I253G/Q254L/R255L/V54K)
# Construct: the numbering corresponds to the full length of the phosphoenolpyruvate-sensitive polypeptide; His-tag
# TEST SUMMARY: phosphoenolpyruvate titration of purified optical probe (fluorescence ratio)
# STUDY CONDITIONS: phosphoenolpyruvate 0 to 10 mM, purified probe treated 10 minutes, ex 420/485 nm, em 528 nm
MEASUREMENT TYPE: Kd (µM)
Answer format: numeric, µM implied, no suffix.

Exercise: Fill in the blank: the reported Kd of C=C(OP(=O)(O)O)C(=O)O [phosphoenolpyruvate, Phosphoenolpyruvate] is ____.
Key: 267

###

# SUBJECT OF TEST: Thermus thermophilus TtPFK optical probe 254/255-TtPFK-cpYFP variant, TtPFK V54Q/I253G/Q254L/R255L/G256F, cpYFP Y1P (Thermus thermophilus, UniProt P21777, form not given/G256F/I253G/Q254L/R255L/V54Q)
# Construct: the numbering corresponds to the full length of the phosphoenolpyruvate-sensitive polypeptide; His-tag
# TEST SUMMARY: phosphoenolpyruvate titration of purified optical probe (fluorescence ratio)
# STUDY CONDITIONS: phosphoenolpyruvate 0 to 10 mM, purified probe treated 10 minutes, ex 420/485 nm, em 528 nm
MEASUREMENT TYPE: pKd
Note: pKd values are expressed as the negative base-10 logarithm of concentration in M.

Exercise: What value of pKd has been reported for the following compound? C=C(OP(=O)(O)O)C(=O)O [phosphoenolpyruvate, Phosphoenolpyruvate]
Key: 3.11

###

# SUBJECT OF TEST: Thermus thermophilus TtPFK optical probe 254/255-TtPFK-cpYFP variant, TtPFK I253F/Q254L/R255L/G256F, cpYFP Y1G/N246F (Thermus thermophilus, UniProt P21777, form not given/G256F/I253F/Q254L/R255L)
# Construct: the numbering corresponds to the full length of the phosphoenolpyruvate-sensitive polypeptide; His-tag
# TEST SUMMARY: phosphoenolpyruvate titration of purified optical probe (fluorescence ratio)
# STUDY CONDITIONS: phosphoenolpyruvate 0 to 10 mM, purified probe treated 10 minutes, ex 420/485 nm, em 528 nm
MEASUREMENT TYPE: pKd
pKd is defined as minus the log10 of a concentration measured in mol/L.

Exercise: Entry under review: C=C(OP(=O)(O)O)C(=O)O [phosphoenolpyruvate, Phosphoenolpyruvate] . Reported pKd?
Key: 5.25

###

# SUBJECT OF TEST: Thermus thermophilus TtPFK optical probe 254/255-TtPFK-cpYFP variant, TtPFK I253V/Q254L/R255L/G256H, cpYFP Y1S (Thermus thermophilus, UniProt P21777, form not given/G256H/I253V/Q254L/R255L)
# Construct: the numbering corresponds to the full length of the phosphoenolpyruvate-sensitive polypeptide; His-tag; made in house; host or cells: E. coli BL21 (DE3)
# TEST SUMMARY: phosphoenolpyruvate titration of purified optical probe (fluorescence ratio)
# Format: binding
# STUDY CONDITIONS: phosphoenolpyruvate 0 to 10 mM, purified probe treated 10 minutes, ex 420/485 nm, em 528 nm
MEASUREMENT TYPE: pKd
Reminder that pKd means the negative base-10 logarithm of the concentration expressed in mol/L.

Exercise: Need pKd of C=C(OP(=O)(O)O)C(=O)O [phosphoenolpyruvate, Phosphoenolpyruvate] , thanks.
Key: 5.25

###

# SUBJECT OF TEST: Thermus thermophilus TtPFK optical probe 254/255-TtPFK-cpYFP variant, TtPFK N59H/I253G/Q254L/R255L/G256F, cpYFP Y1P (Thermus thermophilus, UniProt P21777, form not given/G256F/I253G/N59H/Q254L/R255L)
# Construct: the numbering corresponds to the full length of the phosphoenolpyruvate-sensitive polypeptide; His-tag
# TEST SUMMARY: phosphoenolpyruvate titration of purified optical probe (fluorescence ratio)
# STUDY CONDITIONS: phosphoenolpyruvate 0 to 10 mM, purified probe treated 10 minutes, ex 420/485 nm, em 528 nm
MEASUREMENT TYPE: pKd
Please note pKd is a logarithmic value: minus log10 of concentration in mol/L. Answer with that number alone.

Exercise: Report pKd for C=C(OP(=O)(O)O)C(=O)O [phosphoenolpyruvate, Phosphoenolpyruvate] please.
Key: 3.75

###

# SUBJECT OF TEST: Thermus thermophilus TtPFK optical probe 254/255-TtPFK-cpYFP variant, TtPFK Q254L/R255L/G256H, cpYFP Y1S (Thermus thermophilus, UniProt P21777, form not given/G256H/Q254L/R255L)
# Construct: the numbering corresponds to the full length of the phosphoenolpyruvate-sensitive polypeptide; His-tag
# TEST SUMMARY: phosphoenolpyruvate titration of purified optical probe (fluorescence ratio)
# STUDY CONDITIONS: phosphoenolpyruvate 0 to 10 mM, purified probe treated 10 minutes, ex 420/485 nm, em 528 nm
MEASUREMENT TYPE: Kd (µM)
# value in µM; strip the unit string

Exercise: // lookup Kd for C=C(OP(=O)(O)O)C(=O)O [phosphoenolpyruvate, Phosphoenolpyruvate]
Key: 8.5

###

# SUBJECT OF TEST: Thermus thermophilus phosphofructokinase TtPFK (SEQ ID NO: 1) optical probe 254/255-TtPFK-cpYFP, no mutation, SEQ ID NO: 10 (Thermus thermophilus, UniProt P21777)
# Construct: His-tag
# TEST SUMMARY: phosphoenolpyruvate titration of purified optical probe (fluorescence ratio)
# STUDY CONDITIONS: phosphoenolpyruvate 0 to 10 mM, purified probe treated 10 minutes, ex 420/485 nm, em 528 nm
MEASUREMENT TYPE: Kd (nM)
Only the number, expressed in nM, is required.

Exercise: Bench note: what Kd did C=C(OP(=O)(O)O)C(=O)O [phosphoenolpyruvate, Phosphoenolpyruvate] show?
Key: 800

###

# SUBJECT OF TEST: Thermus thermophilus TtPFK optical probe 254/255-TtPFK-cpYFP variant, TtPFK I253V/Q254A/R255F/G256Y, cpYFP N246F (Thermus thermophilus, UniProt P21777, form not given/G256Y/I253V/Q254A/R255F)
# Construct: the numbering corresponds to the full length of the phosphoenolpyruvate-sensitive polypeptide; His-tag; made in house; host or cells: E. coli BL21 (DE3)
# TEST SUMMARY: phosphoenolpyruvate titration of purified optical probe (fluorescence ratio)
# Assay type: binding
# STUDY CONDITIONS: phosphoenolpyruvate 0 to 10 mM, purified probe treated 10 minutes, ex 420/485 nm, em 528 nm
MEASUREMENT TYPE: Kd (µM)
Only the number, expressed in µM, is required.

Exercise: Item under review: C=C(OP(=O)(O)O)C(=O)O [phosphoenolpyruvate, Phosphoenolpyruvate] . Reported Kd?
Key: 32

###

# SUBJECT OF TEST: Thermus thermophilus TtPFK optical probe 254/256-TtPFK-cpYFP variant, TtPFK R212M/I253Q/Q254L/G256V/G257L, cpYFP Y1T/N246F (Thermus thermophilus, UniProt P21777, form not given/G256V/G257L/I253Q/Q254L/R212M)
# Construct: the numbering corresponds to the full length of the phosphoenolpyruvate-sensitive polypeptide; His-tag
# TEST SUMMARY: phosphoenolpyruvate titration of purified optical probe (fluorescence ratio)
# STUDY CONDITIONS: phosphoenolpyruvate 0 to 10 mM, purified probe treated 10 minutes, ex 420/485 nm, em 528 nm
MEASUREMENT TYPE: pKd
On this scale, pKd is minus log10 of a concentration expressed in M (mol/L).

Exercise: Could you tell me which pKd is on file for C=C(OP(=O)(O)O)C(=O)O [phosphoenolpyruvate, Phosphoenolpyruvate] ?
Key: 3.15

###

# SUBJECT OF TEST: Thermus thermophilus TtPFK optical probe 254/256-TtPFK-cpYFP variant, TtPFK N59D/I253Q/Q254L/G256V/G257L, cpYFP Y1T/N246F (Thermus thermophilus, UniProt P21777, form not given/G256V/G257L/I253Q/N59D/Q254L)
# Construct: His-tag
# TEST SUMMARY: phosphoenolpyruvate titration of purified optical probe (fluorescence ratio)
# STUDY CONDITIONS: phosphoenolpyruvate 0 to 10 mM, purified probe treated 10 minutes, ex 420/485 nm, em 528 nm
MEASUREMENT TYPE: Kd (µM)
Value expressed in µM; do not type the unit.

Exercise: Can you look up the measured Kd of C=C(OP(=O)(O)O)C(=O)O [phosphoenolpyruvate, Phosphoenolpyruvate] for me?
Key: 374

###

# SUBJECT OF TEST: Thermus thermophilus TtPFK optical probe 254/256-TtPFK-cpYFP variant, TtPFK S216L/I253Q/Q254L/G256V/G257L, cpYFP Y1T/N246F (Thermus thermophilus, UniProt P21777, form not given/G256V/G257L/I253Q/Q254L/S216L)
# Construct: the numbering corresponds to the full length of the phosphoenolpyruvate-sensitive polypeptide; His-tag
# TEST SUMMARY: phosphoenolpyruvate titration of purified optical probe (fluorescence ratio)
# STUDY CONDITIONS: phosphoenolpyruvate 0 to 10 mM, purified probe treated 10 minutes, ex 420/485 nm, em 528 nm
MEASUREMENT TYPE: pKd
Expect pKd as a plain number equal to -log10 of the molar concentration.

Exercise: Quick check: pKd of C=C(OP(=O)(O)O)C(=O)O [phosphoenolpyruvate, Phosphoenolpyruvate] ?
Key: 5.86
